B1: library; a variant is named by its letters at N, in order (parent)
chain: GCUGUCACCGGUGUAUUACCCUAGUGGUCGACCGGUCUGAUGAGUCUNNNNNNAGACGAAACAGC

variants of: B1; assay: normalized RNA/DNA level without ligand (relative to sTRSVctl = 100) (log10 (% of sTRSVctl)); ligand: hypoxanthine (xanthine aptamer); higher = less ribozyme self-cleavage, higher mRNA level; settings: HEK293T, reporter: mCherry (pCS4076), ligand present: no
Record form. Attribute: normalized RNA/DNA level without ligand (log10). Fill in for each entry.
Would you mind answering with just the numeric figure?

Asked: Please report the recorded normalized RNA/DNA level without ligand (log10) for `GGGUUC` .
Given back: 1.91

Asked: Please report the recorded normalized RNA/DNA level without ligand (log10) for `AACUGA` .
Given back: 1.72

Asked: Please report the recorded normalized RNA/DNA level without ligand (log10) for `CCUUGU` .
Given back: 1.88

Asked: Please report the recorded normalized RNA/DNA level without ligand (log10) for `UAUCAU` .
Given back: 1.79

Asked: Please report the recorded normalized RNA/DNA level without ligand (log10) for `UGGGGC` .
Given back: 1.94

Asked: Please report the recorded normalized RNA/DNA level without ligand (log10) for `CAUAUU` .
Given back: 1.8

Asked: Please report the recorded normalized RNA/DNA level without ligand (log10) for `AGGAAU` .
Given back: 1.74

Asked: Please report the recorded normalized RNA/DNA level without ligand (log10) for `UCAGAG` .
Given back: 1.58

Asked: Please report the recorded normalized RNA/DNA level without ligand (log10) for `GAAAGC` .
Given back: 1.39

Asked: Please report the recorded normalized RNA/DNA level without ligand (log10) for `UGUCUG` .
Given back: 1.77

Asked: Please report the recorded normalized RNA/DNA level without ligand (log10) for `AUCACC` .
Given back: 1.95

Asked: Please report the recorded normalized RNA/DNA level without ligand (log10) for `CGCCGC` .
Given back: 1.92

Asked: Please report the recorded normalized RNA/DNA level without ligand (log10) for `UGGAAG` .
Given back: 1.56

Asked: Please report the recorded normalized RNA/DNA level without ligand (log10) for `CAACCA` .
Given back: 1.8

Asked: Please report the recorded normalized RNA/DNA level without ligand (log10) for `UUAUAC` .
Given back: 1.83

Asked: Please report the recorded normalized RNA/DNA level without ligand (log10) for `GCAUAC` .
Given back: 1.62

Asked: Please report the recorded normalized RNA/DNA level without ligand (log10) for `CUGAGU` .
Given back: 1.84

Asked: Please report the recorded normalized RNA/DNA level without ligand (log10) for `UGCAUA` .
Given back: 1.83

Asked: Please report the recorded normalized RNA/DNA level without ligand (log10) for `CCUCAA` .
Given back: 1.84

Asked: Please report the recorded normalized RNA/DNA level without ligand (log10) for `GUGUGA` .
Given back: 1.58

Asked: Please report the recorded normalized RNA/DNA level without ligand (log10) for `AACGCG` .
Given back: 1.33

Asked: Please report the recorded normalized RNA/DNA level without ligand (log10) for `AGGAAG` .
Given back: 1.11

Asked: Please report the recorded normalized RNA/DNA level without ligand (log10) for `GAAGAC` .
Given back: 1.63

Asked: Please report the recorded normalized RNA/DNA level without ligand (log10) for `UGGUGU` .
Given back: 1.6

Asked: Please report the recorded normalized RNA/DNA level without ligand (log10) for `GACCCG` .
Given back: 1.63

Asked: Please report the recorded normalized RNA/DNA level without ligand (log10) for `AGUUGG` .
Given back: 1.34

Asked: Please report the recorded normalized RNA/DNA level without ligand (log10) for `GACAUA` .
Given back: 1.79

Asked: Please report the recorded normalized RNA/DNA level without ligand (log10) for `GACCAU` .
Given back: 1.84

Asked: Please report the recorded normalized RNA/DNA level without ligand (log10) for `UUAACG` .
Given back: 1.85

Asked: Please report the recorded normalized RNA/DNA level without ligand (log10) for `UUGGGC` .
Given back: 1.91

Asked: Please report the recorded normalized RNA/DNA level without ligand (log10) for `GGUAAA` .
Given back: 1.69

Asked: Please report the recorded normalized RNA/DNA level without ligand (log10) for `GAGUAC` .
Given back: 1.71

Asked: Please report the recorded normalized RNA/DNA level without ligand (log10) for `CACCCC` .
Given back: 1.89

Asked: Please report the recorded normalized RNA/DNA level without ligand (log10) for `CCAAAA` .
Given back: 1.82

Asked: Please report the recorded normalized RNA/DNA level without ligand (log10) for `ACCACC` .
Given back: 1.93

Asked: Please report the recorded normalized RNA/DNA level without ligand (log10) for `GGCUAC` .
Given back: 1.79

Asked: Please report the recorded normalized RNA/DNA level without ligand (log10) for `UAGCAG` .
Given back: 1.61

Asked: Please report the recorded normalized RNA/DNA level without ligand (log10) for `UUUGUC` .
Given back: 1.99

Asked: Please report the recorded normalized RNA/DNA level without ligand (log10) for `CCAACG` .
Given back: 1.86
